# Test system: Madurella mycetomatis MM55
# Assay procedure: growth relative to untreated control; higher = less inhibition, active = 20 or less
# Particulars: 25 µM
Attribute: growth
Numbers only; they are read as %.

Query: Kindly state the measured growth obtained for Cc1cnc2nc(NC3COc4ccc(F)cc43)nc(NC3CCC4(CCCC4)CC3)c2c1 (stereo not given) with Madurella mycetomatis MM55.
Reply: 73.6

Query: Kindly state the measured growth obtained for COc1cccc2c1CCCC2CCCN1CCN(C2CCCCC2)CC1 (stereo not given) with Madurella mycetomatis MM55.
Reply: 75.4

Query: Kindly state the measured growth obtained for `COc1ccc(CCNc2nccc(-c3cc(Cl)cc(C(F)(F)F)c3)n2)cc1` with Madurella mycetomatis MM55.
Reply: 110

Query: Kindly state the measured growth obtained for `CN(C)c1ncc2nc(Nc3cc(Cl)cc(C(F)(F)F)c3)n(C3CCNCC3)c2n1` with Madurella mycetomatis MM55.
Reply: 86.2

Query: Kindly state the measured growth obtained for `OCCN1CCN(CCCN2c3ccccc3Sc3ccc(C(F)(F)F)cc32)CC1` with Madurella mycetomatis MM55.
Reply: 3.76

Query: Kindly state the measured growth obtained for CNC(=O)c1cc(-c2n[nH]c3ccc(-c4nc(C5CCCN5)n[nH]4)cc23)ccc1F (stereo not given) with Madurella mycetomatis MM55.
Reply: 98.4

Source of measurements: the supplement of paper PMC11172423
